Cited source for all entries: paper PMC5854701

system: influenza B virus B/Memphis/20/1996 (Yamagata); test: in vitro; settings: dog, MDCK

{"COMPOUND": "C[C@@H](c1ccccc1)n1nnnc1[C@H](c1ccsc1)N1CCC(n2c(=O)[nH]c3ccccc32)CC1 [Compound 12a]", "selectivity ratio": "> 55.6"}

###

system: A/WSN/33 (H1N1)
EXPERIMENTAL_ENDPOINT: antiviral activity in plaque assay (in words)

{"MOLECULE": "C[C@@H](c1ccccc1)n1nnnc1[C@@H](c1ccsc1)N1CCC(n2c(=O)[nH]c3ccccc32)CC1 [Compound 12b]", "RESULT": "not active"}
{"MOLECULE": "O=c1[nH]c2ccccc2n1C1CCN(C(c2ccc(-c3ccccc3)cc2)c2nnnn2-c2ccc3c(c2)OCCO3)CC1 (stereo not shown)", "RESULT": "not active"}
{"MOLECULE": "CC(C)c1ccc(C(c2nnnn2-c2ccc3c(c2)OCCO3)N2CCC(n3c(=O)[nH]c4ccccc43)CC2)cc1 (stereo not shown)", "RESULT": "not active"}
